Reported Ki is given for each of the following molecules.
Target: glucocorticoid receptor (Homo sapiens)
Sequence (P04150 1-777): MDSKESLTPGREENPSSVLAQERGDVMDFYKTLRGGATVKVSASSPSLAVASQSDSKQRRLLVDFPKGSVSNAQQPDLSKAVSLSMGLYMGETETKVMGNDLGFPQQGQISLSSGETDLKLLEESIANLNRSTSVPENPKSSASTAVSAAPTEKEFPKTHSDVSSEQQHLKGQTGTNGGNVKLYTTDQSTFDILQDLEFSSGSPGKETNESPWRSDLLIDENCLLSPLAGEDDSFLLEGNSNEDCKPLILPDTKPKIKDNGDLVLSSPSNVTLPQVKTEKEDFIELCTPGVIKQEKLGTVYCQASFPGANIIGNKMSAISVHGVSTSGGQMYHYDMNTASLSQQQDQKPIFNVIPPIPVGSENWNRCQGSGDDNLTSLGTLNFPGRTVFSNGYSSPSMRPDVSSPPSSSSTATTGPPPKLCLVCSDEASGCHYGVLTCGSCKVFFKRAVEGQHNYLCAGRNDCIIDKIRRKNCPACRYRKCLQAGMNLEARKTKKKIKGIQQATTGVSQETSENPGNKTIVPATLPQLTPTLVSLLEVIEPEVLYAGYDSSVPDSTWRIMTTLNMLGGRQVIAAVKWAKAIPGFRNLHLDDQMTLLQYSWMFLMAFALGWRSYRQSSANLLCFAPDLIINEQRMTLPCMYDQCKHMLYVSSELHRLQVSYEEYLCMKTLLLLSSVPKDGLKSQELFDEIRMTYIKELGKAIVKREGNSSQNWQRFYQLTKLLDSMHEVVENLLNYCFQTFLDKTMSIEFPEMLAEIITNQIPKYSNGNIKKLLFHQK
Property Measured: Ki

[[record]]
smiles_representation = "Cc1nc2c(s1)/C(=C\\c1cccc(NS(C)(=O)=O)c1)c1ccccc1CC2"
val = "< 500 nM"

[[record]]
smiles_representation = "CS(=O)(=O)Nc1cccc(/C=C2\\c3ccccc3CS(=O)(=O)c3ccccc32)c1"
val = "< 10000 nM"

[[record]]
smiles_representation = "CN(C)c1cccc2c1CCc1ccccc1C2=Cc1cccc(NS(C)(=O)=O)c1"
val = "< 500 nM"

[[record]]
smiles_representation = "CNS(=O)(=O)c1ccccc1C=C1c2ccccc2CCc2ccccc21"
val = "< 1000 nM"

[[record]]
smiles_representation = "COc1ccc2c(c1)OCc1ccccc1C2=Cc1ccc2[nH]c(=O)[nH]c2c1"
val = "< 10000 nM"

[[record]]
smiles_representation = "CS(=O)(=O)Nc1cccc(C=C2c3ccc(F)cc3CCc3cc(F)ccc32)c1"
val = "< 1000 nM"

[[record]]
smiles_representation = "CS(=O)(=O)Nc1cc(F)cc(/C=C2\\c3ccc(Cl)cc3COc3ccccc32)c1"
val = "< 500 nM"

[[record]]
smiles_representation = "C/C(=C1\\c2ccc(Cl)cc2COc2cc(F)ccc21)c1cccc(NS(C)(=O)=O)c1"
val = "< 500 nM"


---

Target: UniProtKB P04150
Sequence (P04150 1-777): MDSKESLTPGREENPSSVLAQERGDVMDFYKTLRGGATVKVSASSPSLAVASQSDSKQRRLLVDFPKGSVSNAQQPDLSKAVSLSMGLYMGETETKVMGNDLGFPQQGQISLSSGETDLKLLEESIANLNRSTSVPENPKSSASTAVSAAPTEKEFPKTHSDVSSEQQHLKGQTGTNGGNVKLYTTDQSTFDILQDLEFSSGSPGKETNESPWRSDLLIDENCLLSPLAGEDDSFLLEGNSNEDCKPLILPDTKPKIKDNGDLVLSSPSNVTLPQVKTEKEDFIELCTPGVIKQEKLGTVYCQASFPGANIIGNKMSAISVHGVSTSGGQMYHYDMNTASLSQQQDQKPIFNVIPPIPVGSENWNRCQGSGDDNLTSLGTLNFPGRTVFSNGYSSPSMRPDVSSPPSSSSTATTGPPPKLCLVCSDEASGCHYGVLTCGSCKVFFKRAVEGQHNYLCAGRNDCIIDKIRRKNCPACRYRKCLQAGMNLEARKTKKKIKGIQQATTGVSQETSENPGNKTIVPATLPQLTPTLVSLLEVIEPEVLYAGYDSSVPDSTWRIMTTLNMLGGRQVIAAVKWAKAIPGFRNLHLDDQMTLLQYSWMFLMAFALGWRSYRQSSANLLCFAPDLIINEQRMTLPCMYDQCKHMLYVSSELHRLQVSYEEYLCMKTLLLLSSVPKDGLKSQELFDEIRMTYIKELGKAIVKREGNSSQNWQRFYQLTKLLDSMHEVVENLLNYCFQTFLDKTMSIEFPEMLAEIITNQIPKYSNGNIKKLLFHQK
pKi: −log10 of the molar value.
Property Measured: pKi

[[record]]
compound = "COc1ccc2c(c1)CCc1cc(C)ccc1C2=C(C)c1cccc(NS(C)(=O)=O)c1"
val = "> 6.30"

[[record]]
compound = "COc1ccc2c(c1OC)CSc1ccccc1/C2=C/c1cccc(NS(=O)(=O)c2ccccc2)c1"
val = "> 6.30"

[[record]]
compound = "CS(=O)(=O)Nc1cccc(C=C2c3ccccc3C3CC3c3ccccc32)c1 (centres unmarked)"
val = "> 6.30"

[[record]]
compound = "O=C(Nc1cccc(/C=C2/c3ccccc3CCc3cc(Cl)ccc32)c1)C(F)(F)F"
val = "> 6.30"

[[record]]
compound = "Oc1cccc(C=C2c3ccccc3CCc3c(F)cccc32)c1 [185(b)]"
val = "> 6.00"

[[record]]
compound = "O=c1[nH]c2ccc(/C=C3/c4ccc(F)cc4CCc4ncsc43)cc2[nH]1"
val = "> 5.00"

[[record]]
compound = "CS(=O)(=O)Nc1cccc(C=C2c3ccccc3CCc3ccccc32)n1"
val = "> 6.30"

[[record]]
compound = "CS(=O)(=O)Nc1cccc(/C=C2/c3ccccc3OCc3c(F)cccc32)c1"
val = "> 6.30"


---

Molecular target: human MR (Homo sapiens)
Construct: The full length human MR gene is cloned from a human kidney or human brain cDNA library; His tag from the pAcHLT vector (own knowledge); made in house; host or cells: Sf9 insect cells (baculovirus, pAcHLT transfer vector)
Sequence (P08235 whole entry): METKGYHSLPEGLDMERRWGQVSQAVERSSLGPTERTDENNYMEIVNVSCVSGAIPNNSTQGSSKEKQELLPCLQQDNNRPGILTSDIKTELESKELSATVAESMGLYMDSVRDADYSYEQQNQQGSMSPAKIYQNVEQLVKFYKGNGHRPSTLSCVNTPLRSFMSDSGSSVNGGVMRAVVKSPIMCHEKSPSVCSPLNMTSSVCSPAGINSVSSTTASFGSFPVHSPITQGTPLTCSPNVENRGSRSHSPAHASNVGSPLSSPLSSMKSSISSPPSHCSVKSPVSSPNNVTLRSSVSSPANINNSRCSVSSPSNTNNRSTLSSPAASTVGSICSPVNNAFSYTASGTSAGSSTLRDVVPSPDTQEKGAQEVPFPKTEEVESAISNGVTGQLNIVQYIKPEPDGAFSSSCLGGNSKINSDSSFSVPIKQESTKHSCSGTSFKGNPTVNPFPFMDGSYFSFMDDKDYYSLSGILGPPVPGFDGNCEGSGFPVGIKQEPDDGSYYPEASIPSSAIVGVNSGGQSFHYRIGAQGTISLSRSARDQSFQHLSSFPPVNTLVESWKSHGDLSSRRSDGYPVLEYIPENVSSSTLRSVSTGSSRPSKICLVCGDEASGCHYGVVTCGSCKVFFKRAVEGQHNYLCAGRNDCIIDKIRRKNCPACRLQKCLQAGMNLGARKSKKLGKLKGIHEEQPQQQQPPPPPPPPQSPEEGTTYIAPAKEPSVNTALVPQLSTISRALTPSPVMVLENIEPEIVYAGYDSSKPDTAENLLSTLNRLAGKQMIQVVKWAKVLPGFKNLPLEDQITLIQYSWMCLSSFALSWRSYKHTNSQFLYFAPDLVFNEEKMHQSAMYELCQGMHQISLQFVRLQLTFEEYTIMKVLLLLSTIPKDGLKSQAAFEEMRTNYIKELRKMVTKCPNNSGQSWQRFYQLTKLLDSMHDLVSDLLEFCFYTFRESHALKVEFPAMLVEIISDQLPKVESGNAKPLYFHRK
Test: Mineralocorticoid Receptor Binding Assay ([3H]-aldosterone)
Conditions: [3H]-aldosterone binding, human MR expressed in Sf9 cells; read-out: MR Ki
Property Measured: Ki

[[record]]
smiles_representation = "N#Cc1ccc2c(c1)CCc1ccccc1/C2=C\\c1ccc2[nH]c(=O)[nH]c2c1"
target = "human MR (Homo sapiens)"
property_measured = "Ki"
val = "< 500 nM"

[[record]]
smiles_representation = "CS(=O)(=O)Nc1cc(F)cc(/C=C2/c3ccc(Cl)cc3COc3ccccc32)c1"
target = "human MR (Homo sapiens)"
property_measured = "Ki"
val = "< 500 nM"

[[record]]
smiles_representation = "CS(=O)(=O)Nc1cccc(/C=C2\\c3ccccc3CCc3sccc32)c1"
target = "human MR (Homo sapiens)"
property_measured = "Ki"
val = "< 500 nM"

[[record]]
smiles_representation = "CS(=O)(=O)Nc1cccc(C=C2c3ccc(F)cc3CCc3cc(F)ccc32)c1"
target = "human MR (Homo sapiens)"
property_measured = "Ki"
val = "< 500 nM"

[[record]]
smiles_representation = "O=c1[nH]c2ccc(C=C3c4cccc(F)c4CCc4c(F)cccc43)cc2[nH]1"
target = "human MR (Homo sapiens)"
property_measured = "Ki"
val = "< 500 nM"

[[record]]
smiles_representation = "CS(=O)(=O)Nc1cccc(/C=C2\\c3ccccc3COc3c(F)cccc32)c1"
target = "human MR (Homo sapiens)"
property_measured = "Ki"
val = "< 500 nM"

[[record]]
smiles_representation = "Cc1cccc2c1CCc1ccccc1/C2=C\\c1ccc(NS(C)(=O)=O)cc1"
target = "human MR (Homo sapiens)"
property_measured = "Ki"
val = "< 500 nM"

[[record]]
smiles_representation = "CS(=O)(=O)Nc1cccc(C=C2c3ccccc3CCc3cc(N)ccc32)c1"
target = "human MR (Homo sapiens)"
property_measured = "Ki"
val = "< 500 nM"


---

Reported Ki is given for each of the following compounds.
Target: glucocorticoid receptor (Homo sapiens, UniProt P04150)
Sequence (P04150 1-777): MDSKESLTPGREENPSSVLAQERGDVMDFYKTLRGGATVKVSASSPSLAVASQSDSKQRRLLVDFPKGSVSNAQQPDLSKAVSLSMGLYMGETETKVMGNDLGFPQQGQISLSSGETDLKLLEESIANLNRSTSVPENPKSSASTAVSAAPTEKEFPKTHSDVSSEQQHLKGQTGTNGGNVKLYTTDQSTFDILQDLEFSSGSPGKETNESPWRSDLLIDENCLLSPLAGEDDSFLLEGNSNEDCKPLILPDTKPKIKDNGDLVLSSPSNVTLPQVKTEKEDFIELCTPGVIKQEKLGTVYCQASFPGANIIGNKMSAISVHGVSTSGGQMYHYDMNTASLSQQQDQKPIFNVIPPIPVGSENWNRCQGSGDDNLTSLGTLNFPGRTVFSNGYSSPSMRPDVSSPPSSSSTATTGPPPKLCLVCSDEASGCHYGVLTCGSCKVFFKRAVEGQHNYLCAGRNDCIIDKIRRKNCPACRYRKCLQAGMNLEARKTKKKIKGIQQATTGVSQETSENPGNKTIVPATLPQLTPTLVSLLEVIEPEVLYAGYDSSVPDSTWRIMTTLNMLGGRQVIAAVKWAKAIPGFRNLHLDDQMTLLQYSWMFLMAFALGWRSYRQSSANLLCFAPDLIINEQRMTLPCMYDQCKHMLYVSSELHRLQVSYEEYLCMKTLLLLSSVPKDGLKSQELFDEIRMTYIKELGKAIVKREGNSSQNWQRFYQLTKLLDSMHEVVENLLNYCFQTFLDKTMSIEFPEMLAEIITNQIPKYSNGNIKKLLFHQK
Property Measured: Ki

[[record]]
compound = "Nc1cccc(/C=C2/c3ccc(F)cc3CCc3ncccc32)c1 [Example 533]"
property_measured = "Ki"
val = "< 1000 nM"

[[record]]
compound = "Nc1ccccc1/C=C1\\c2ccc(F)cc2CCc2ncccc21 [Example 530]"
property_measured = "Ki"
val = "< 500 nM"

[[record]]
compound = "C(=C1c2ccccc2CCc2ccccc21)c1ccccc1-c1cnccn1 [Example 225]"
property_measured = "Ki"
val = "< 10000 nM"

[[record]]
compound = "CS(=O)(=O)Nc1cccc(/C=C2/c3ccccc3CCc3sccc32)c1 [Example 476]"
property_measured = "Ki"
val = "< 500 nM"

[[record]]
compound = "COc1ccc(C=C2c3ccccc3CSc3ccccc32)cn1 [Example 688]"
property_measured = "Ki"
val = "< 500 nM"

[[record]]
compound = "Cc1ccc(C=C2c3ccccc3CCc3ccccc32)cc1NS(C)(=O)=O [Example 45]"
property_measured = "Ki"
val = "< 1000 nM"

[[record]]
compound = "C/C(=C1\\c2ccccc2COc2ccccc21)c1cccc(NS(C)(=O)=O)c1 [Example 795]"
property_measured = "Ki"
val = "< 500 nM"

[[record]]
compound = "CNc1ccccc1C=C1c2ccccc2CCc2ccccc21 [Example 120]"
property_measured = "Ki"
val = "< 10000 nM"

[[record]]
compound = "CS(=O)(=O)Nc1cncc(C=C2c3ccccc3CCc3ccccc32)n1 [Example 233]"
property_measured = "Ki"
val = "< 10000 nM"

[[record]]
compound = "CN(C)c1ccc2c(c1)CCc1ccccc1C2=Cc1cccc(NS(C)(=O)=O)c1 [Example 402]"
property_measured = "Ki"
val = "< 10000 nM"

[[record]]
compound = "CN(C)c1ccccc1C=C1c2ccccc2CCc2ccccc21 [Example 121]"
property_measured = "Ki"
val = "< 10000 nM"

[[record]]
compound = "C/C(=C1/c2ccc(Cl)cc2COc2cc(F)ccc21)c1cccc(NS(C)(=O)=O)c1 [Example 803]"
property_measured = "Ki"
val = "< 500 nM"

[[record]]
compound = "CS(=O)(=O)Nc1cccc(C[C@H]2c3ccccc3CCc3ncccc32)c1 [Example 517]"
property_measured = "Ki"
val = "< 1000 nM"

[[record]]
compound = "CS(=O)(=O)Nc1cccc(C=C2c3ccccc3CCc3cc(F)cc(F)c32)c1 [Example 344]"
property_measured = "Ki"
val = "< 500 nM"

[[record]]
compound = "Oc1cccc(C=C2c3ccccc3CCc3cc(F)ccc32)c1 [200(a)]"
property_measured = "Ki"
val = "< 500 nM"

[[record]]
compound = "Cc1ccccc1C=C1c2ccccc2CCc2cc(Cl)ccc21 [Example 175]"
property_measured = "Ki"
val = "< 10000 nM"

[[record]]
compound = "Cc1ccc2c(c1)CSc1ccccc1/C2=C/c1cccc(NS(C)(=O)=O)c1 [Example 744]"
property_measured = "Ki"
val = "< 500 nM"

[[record]]
compound = "CS(=O)(=O)Nc1cccc(/C=C2/c3ccccc3COc3c(Cl)cccc32)c1 [Example 662]"
property_measured = "Ki"
val = "< 500 nM"

[[record]]
compound = "Oc1cccc(C=C2c3cccc(F)c3CCc3c(F)cccc32)c1 [Example 202]"
property_measured = "Ki"
val = "< 1000 nM"

